# Test system: Enterococcus faecalis
# assayDetails: Antibacterial activity against Enterococcus faecalis
# Assay type: functional
Entries and their MIC50

compound: CC[C@H]1OC(=O)[C@H](C)[C@@H](O[C@H]2C[C@@](C)(OC)[C@@H](O)[C@H](C)O2)[C@H](C)[C@@H](O[C@@H]2O[C@H](C)C[C@H](N(C)C)[C@H]2O)[C@](C)(O)C[C@@H](C)CN(C)[C@H](C)[C@@H](O)[C@]1(C)O
MIC50 (µg/mL): 4
--
compound: CC(=O)NCC1CN(c2ccc(N3CCOCC3)c(F)c2)C(=O)O1 (single isomer, unassigned)
MIC50 (µg/mL): 2
--
compound: C[C@H]1COc2c(N3CCN(C)CC3)c(F)cc3c(=O)c(C(=O)O)cn1c23.C[C@H]1COc2c(N3CCN(C)CC3)c(F)cc3c(=O)c(C(=O)O)cn1c23.O
MIC50 (µg/mL): 16
--
compound: CN[C@H](CC(C)C)C(=O)N[C@H]1C(=O)N[C@@H](CC(N)=O)C(=O)N[C@H]2C(=O)N[C@H]3C(=O)N[C@H](C(=O)N[C@H](C(=O)O)c4cc(O)cc(O)c4-c4cc3ccc4O)[C@H](O)c3ccc(c(Cl)c3)Oc3cc2cc(c3O[C@@H]2O[C@H](CO)[C@@H](O)[C@H](O)[C@H]2O[C@H]2C[C@](C)(N)[C@H](O)[C@H](C)O2)Oc2ccc(cc2Cl)[C@H]1O
MIC50 (µg/mL): 2

----------
Listed molecules paired with reported MIC90
# Tested on: Staphylococcus aureus
# assayDetails: Antibacterial activity against methicillin-susceptible Staphylococcus aureus after 24 hrs by broth microdilution method
# Format: functional
measuredEndpoint: MIC90 (µg/mL)

lineNotation: CN[C@H](CC(C)C)C(=O)N[C@H]1C(=O)N[C@@H](CC(N)=O)C(=O)N[C@H]2C(=O)N[C@H]3C(=O)N[C@H](C(=O)N[C@H](C(=O)O)c4cc(O)cc(O)c4-c4cc3ccc4O)[C@H](O)c3ccc(c(Cl)c3)Oc3cc2cc(c3O[C@@H]2O[C@H](CO)[C@@H](O)[C@H](O)[C@H]2O[C@H]2C[C@](C)(N)[C@H](O)[C@H](C)O2)Oc2ccc(cc2Cl)[C@H]1O
measuredEndpoint: MIC90
ltGtEq: =
readoutNumber: 2

lineNotation: CC[C@H]1OC(=O)[C@H](C)[C@@H](O[C@H]2C[C@@](C)(OC)[C@@H](O)[C@H](C)O2)[C@H](C)[C@@H](O[C@@H]2O[C@H](C)C[C@H](N(C)C)[C@H]2O)[C@](C)(O)C[C@@H](C)CN(C)[C@H](C)[C@@H](O)[C@]1(C)O
measuredEndpoint: MIC90
ltGtEq: >
readoutNumber: 8

----------
# Tested on: Staphylococcus aureus
# assayDetails: Antibacterial activity against methicillin-susceptible Staphylococcus aureus after 24 hrs by broth microdilution method
# Type: functional

compound: Cc1onc(-c2ccccc2)c1C(=O)N[C@@H]1C(=O)N2[C@@H]1SC(C)(C)[C@@H]2C(=O)O
MIC50 / µg/mL: 0.5

compound: CC(=O)NCC1CN(c2ccc(N3CCOCC3)c(F)c2)C(=O)O1 (single isomer, unassigned)
MIC50 / µg/mL: 2

compound: CN[C@H](CC(C)C)C(=O)N[C@H]1C(=O)N[C@@H](CC(N)=O)C(=O)N[C@H]2C(=O)N[C@H]3C(=O)N[C@H](C(=O)N[C@H](C(=O)O)c4cc(O)cc(O)c4-c4cc3ccc4O)[C@H](O)c3ccc(c(Cl)c3)Oc3cc2cc(c3O[C@@H]2O[C@H](CO)[C@@H](O)[C@H](O)[C@H]2O[C@H]2C[C@](C)(N)[C@H](O)[C@H](C)O2)Oc2ccc(cc2Cl)[C@H]1O
MIC50 / µg/mL: 1

----------
# Tested on: Staphylococcus aureus
# assayDetails: Antibacterial activity against methicillin-susceptible Staphylococcus aureus after 24 hrs by broth microdilution method
# Assay type: functional

compound: CC(=O)NCC1CN(c2ccc(N3CCOCC3)c(F)c2)C(=O)O1 (single isomer, unassigned) [LINEZOLID]
unit: µg/mL
ltGtEq: =
MIC90: 2
//
compound: C[C@H]1COc2c(N3CCN(C)CC3)c(F)cc3c(=O)c(C(=O)O)cn1c23.C[C@H]1COc2c(N3CCN(C)CC3)c(F)cc3c(=O)c(C(=O)O)cn1c23.O [LEVOFLOXACIN]
unit: µg/mL
ltGtEq: >
MIC90: 16
//
compound: Cc1onc(-c2ccccc2)c1C(=O)N[C@@H]1C(=O)N2[C@@H]1SC(C)(C)[C@@H]2C(=O)O [OXACILLIN]
unit: µg/mL
ltGtEq: =
MIC90: 0.5

----------
# System: Enterobacter sp.
# assayDetails: Antibacterial activity against Enterobacter sp.
# Format: functional

lineNotation: CC1(C)S[C@@H]2[C@H](NC(=O)[C@H](N)c3ccccc3)C(=O)N2[C@H]1C(=O)O
MIC90: > 32 µg/mL
--
lineNotation: CC(C)(O/N=C(\C(=O)N[C@@H]1C(=O)N2C(C(=O)[O-])=C(C[n+]3ccccc3)CS[C@H]12)c1csc(N)n1)C(=O)O
MIC90: > 32 µg/mL
--
lineNotation: CO/N=C(\C(=O)N[C@@H]1C(=O)N2C(C(=O)O)=C(CSc3nc(=O)c(O)nn3C)CS[C@H]12)c1csc(N)n1
MIC90: > 64 µg/mL
